// data source = patent US20250034165A1

TARGET ENTITY: EGFR (d746-750/T790M/C797S) (Homo sapiens (Human), UniProt P00533, C797S/DEL746-750/T790M)
Sequence (P00533 other isoform, or with tags, fused parts or gaps T790M/C797S/del 1-694/del 746-750 limits assumed): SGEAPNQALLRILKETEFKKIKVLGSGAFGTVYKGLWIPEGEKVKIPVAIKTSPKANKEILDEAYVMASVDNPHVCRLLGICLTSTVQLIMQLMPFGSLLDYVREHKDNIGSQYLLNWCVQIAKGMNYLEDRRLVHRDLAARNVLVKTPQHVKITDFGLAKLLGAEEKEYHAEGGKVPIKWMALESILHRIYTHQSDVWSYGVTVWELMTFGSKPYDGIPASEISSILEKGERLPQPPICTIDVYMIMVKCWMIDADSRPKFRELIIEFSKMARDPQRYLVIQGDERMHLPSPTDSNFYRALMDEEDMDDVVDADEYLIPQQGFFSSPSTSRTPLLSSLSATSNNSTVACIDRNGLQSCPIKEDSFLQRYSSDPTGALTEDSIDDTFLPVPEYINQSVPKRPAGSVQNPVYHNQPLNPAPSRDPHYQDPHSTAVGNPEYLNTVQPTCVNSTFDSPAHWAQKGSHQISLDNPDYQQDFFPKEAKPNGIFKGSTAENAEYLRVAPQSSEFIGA
PROTOCOL DESCRIPTION: Inhibitory activity for EGFR (d746-750/T790M/C797S) kinase
Format: biochemical
RUN PARAMETERS: ATP 5 μM; read-out: EGFR(d19/T790M/C797S) (IC50)
pIC50: −log10 of the molar value.
The threshold is inclusive: pIC50 of exactly 10 counts as satisfied; values below receive not satisfied.

Cc1cc2cc(n1)-c1cnn(C)c1OCCC[C@@H](C1CC1)CN1/C(=N/C2=O)Nc2ccc(NCCCN3CCCC3)cc21    satisfied
Cc1cc2cc(n1)-c1cnn(C)c1OCCC[C@@H](C1CC1)CN1/C(=N/C2=O)Nc2cc(NCCN3CCOCC3)ccc21    satisfied
Cc1cc2cc(n1)-c1cnn(C)c1OCCC[C@@H](C1CC1)CN1/C(=N/C2=O)Nc2ccc(NCCCN3CCOCC3)cc21    satisfied
Cc1cc2cc(n1)-c1cnn(C)c1OCCC[C@@H](C1CC1)CN1/C(=N/C2=O)Nc2cc(NC(C)C3(C)COC3)ccc21 (stereo partly drawn)    not satisfied
